# target: T1, human LIV-1 (human, UniProt Q13433 29-755); note: test concentration or dose not given here
# T1 sequence (looked up): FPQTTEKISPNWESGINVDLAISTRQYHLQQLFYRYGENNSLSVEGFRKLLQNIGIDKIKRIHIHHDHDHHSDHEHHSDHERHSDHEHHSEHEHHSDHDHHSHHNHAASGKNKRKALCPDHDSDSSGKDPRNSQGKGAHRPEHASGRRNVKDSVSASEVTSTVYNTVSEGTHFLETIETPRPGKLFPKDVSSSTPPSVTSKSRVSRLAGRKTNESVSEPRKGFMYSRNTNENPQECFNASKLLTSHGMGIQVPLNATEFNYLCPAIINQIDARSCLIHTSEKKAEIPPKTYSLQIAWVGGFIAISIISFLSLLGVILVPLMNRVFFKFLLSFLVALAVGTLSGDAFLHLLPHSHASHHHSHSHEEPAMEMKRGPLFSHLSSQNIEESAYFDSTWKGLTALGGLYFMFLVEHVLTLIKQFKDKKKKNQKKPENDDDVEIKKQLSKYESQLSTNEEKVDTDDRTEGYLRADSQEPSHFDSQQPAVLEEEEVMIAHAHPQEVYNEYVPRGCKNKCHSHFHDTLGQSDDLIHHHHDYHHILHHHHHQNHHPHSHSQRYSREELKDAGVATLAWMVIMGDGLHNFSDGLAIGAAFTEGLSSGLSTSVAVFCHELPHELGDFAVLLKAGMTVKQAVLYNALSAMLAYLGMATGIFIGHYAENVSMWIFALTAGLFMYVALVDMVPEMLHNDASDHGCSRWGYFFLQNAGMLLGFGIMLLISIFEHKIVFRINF
# protocol: cell-based or functional assay
quantity.measured: Cell viability(%)

{"binder": "112H11C12 (antibody, V domains shown, Tested as chimeric antibody; also called 112H1C12) VH: QVQLQQPGAELVRPGASVKLSCKASGYTFTSYWMNWVKQRPGQGLKWIGMIDPSNSKTHYNQMFKDKATLTVDKSSNTAYMQLSSLTSEDSAVYYCARTSTTMATFAYWGQGTLVSVSA VL: DVLMTQTPLSLPVSLGDQASISCRSSQSIVHSNGNTYLEWYLQKPGQSPKLLIYKVSNRFSGVPDRFSGSGSGTDFTLKISRVEAEDLGVYYCFQASHFPLTFGAGTELDLN", "experimental.result": 18}
{"binder": "290F10G10 (antibody, V domains shown, Tested as chimeric antibody) VH: IQLQQSGAELARPGASVKLSCKASGYTFTSYWIHWVKERPGQGLEWIGTIYPGDGDTRSTQKFKDKATVTAEKSSSTVYMQLSSLASEDSAVYYCTRSLIHDDYDKYYFDYWGQGTTLTVSS VL: DIQMTQSPSSLSASLGGKVTITCKARQDINKYIAWYQHKPGKGPRLLIHYTSILQPGIPSRFSGSGSGRDYSFSISNLEPEDIATYYCLQYDYFFTFGSGTKLEIK", "experimental.result": 3.46}
{"binder": "47G1B10 (antibody, V domains shown, Tested as chimeric antibody) VH: QVQLKQSGPGLVQPSQSLSITCTVSGFSLTTYGVHWVRQSPGKGLEWLGVIWTGGTTDYNAAFISRLSISKDNSKSQVFFKMNSLQANDTAIYYCARGPSSYWGQGTLVTVSA VL: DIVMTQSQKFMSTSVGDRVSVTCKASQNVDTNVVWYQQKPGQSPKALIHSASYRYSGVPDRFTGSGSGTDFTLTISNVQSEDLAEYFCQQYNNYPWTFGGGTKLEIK", "experimental.result": 17.7}
